The reported measurements were obtained from the PolyMetriX glass transition set.

Property Measured: glass transition temperature (°C)

Some solved cases for reference:
[[record]]
molecule = "*Oc1ccc(CC(*)=O)cc1 (repeat unit)"
unit_of_measurement = "°C"
reported_value = 117.00

[[record]]
molecule = "*c1cc(OCCCCCCCCCCCC)cc(N2C(=O)c3ccc(Oc4ccc5c(c4)C(=O)N(*)C5=O)cc3C2=O)c1 (repeat unit)"
unit_of_measurement = "°C"
reported_value = 162.00

[[record]]
molecule = "*Oc1ccc(Sc2ccc(OC(=O)OC3C(C)(C)C(OC(*)=O)C3(C)C)cc2)cc1 (repeat unit)"
unit_of_measurement = "°C"
reported_value = 107.00

[[record]]
molecule = "*OC1C(C)(C)C(OC(=O)c2ccc(C(*)=O)cc2)C1(C)C (repeat unit)"
unit_of_measurement = "°C"
reported_value = 184.00

[[record]]
molecule = "*c1ccc(-c2c(-c3ccccc3)nc3ccc(-c4ccc5nc(-c6ccccc6)c(*)c(-c6ccccc6)c5c4)cc3c2-c2ccccc2)cc1 (repeat unit)"
unit_of_measurement = "°C"
reported_value = 370.00


(a) *CCCCCOC(=O)c1ccc(-c2ccc(C(=O)O*)cc2)cc1 (repeat unit)
(b) *Oc1ccc(C(=O)c2ccc(NC(=O)c3ccc(C(=O)Nc4ccc(C(=O)c5ccc(*)cc5)cc4)cc3)cc2)cc1 (repeat unit)
Smaller glass transition temperature value? Options are a and b Provide the label of your selected option as the answer.
a
(a: 47.50 °C, b: 187.00 °C)

* * *

Property Measured: glass transition temperature (°C)

(P) *O[Si](C)(C)O[Si](C)(C)O[Si](C)(C)OC(C)CCCCC(*)C (repeat unit)
(Q) *CC(*)(C)C(=O)OCc1ccc2c(c1)c1ccccc1n2CCCCCCCC (repeat unit)
// returns P or Q , whichever has the lower glass transition temperature Indicate which entry you chose by stating its label.
P
(P: -94.00 °C, Q: 45.00 °C)

* * *

Property Measured: glass transition temperature (°C)

Take a look at these entries with their results.
[[record]]
compound = "*C1C(=O)N(c2ccccc2C)C(=O)C1* (repeat unit)"
property_measured = "glass transition temperature"
reported_value = 335.00

[[record]]
compound = "*c1ccc(-c2cc(-c3ccc(OCCCCCC)cc3)cc(-c3ccc(-c4ccc5c(c4)C(CCCCCC)(CCCCCC)c4cc(*)ccc4-5)cc3)c2-c2ccc(OCCCCCC)cc2)cc1 (repeat unit)"
property_measured = "glass transition temperature"
reported_value = 118.00

[[record]]
compound = "*OP(=O)(Oc1ccc(OC)cc1)Oc1ccc(S(=O)(=O)c2ccc(*)cc2)cc1 (repeat unit)"
property_measured = "glass transition temperature"
reported_value = 81.00

[[record]]
compound = "*/C=N/c1ccc(C(=O)OCCCCOCCCCOCCCCOC(=O)c2ccc(/N=C/c3ccc4c(c3)c3cc(*)ccc3n4CC(CC)CCCC)cc2)cc1 (repeat unit)"
property_measured = "glass transition temperature"
reported_value = 5.20

[[record]]
compound = "*CCCCCOC(=O)CCCCC(=O)O* (repeat unit)"
property_measured = "glass transition temperature"
reported_value = -69.00

[[record]]
compound = "*OC(=O)c1ccc(C2(C)CC(C)(C)c3ccc(C(=O)Oc4ccc5c(c4)Oc4cc(*)ccc4C5(C)C)cc32)cc1 (repeat unit)"
property_measured = "glass transition temperature"
reported_value = 297.00

[[record]]
compound = "*CCN(CCOC(=O)Nc1ccc(C)c(NC(=O)O*)c1)c1ccccc1 (repeat unit)"
property_measured = "glass transition temperature"
reported_value = 31.90

[[record]]
compound = "*c1ccc(Oc2ccc(N3C(=O)c4ccc(Oc5ccc(-c6ccc(Oc7ccc8c(c7)C(=O)N(*)C8=O)cc6)cc5)cc4C3=O)cc2)cc1 (repeat unit)"
property_measured = "glass transition temperature"
reported_value = 229.00

[[record]]
compound = "*C(=O)Nc1ccc(Oc2ccc(NC(=O)c3ccc4c(c3)C(=O)N(c3ccc(Oc5ccc(C6(c7ccc(Oc8ccc(N9C(=O)c%10ccc(*)cc%10C9=O)cc8)cc7)CC7CC6C6CCCC76)cc5)cc3)C4=O)cc2)cc1 (repeat unit)"
property_measured = "glass transition temperature"
reported_value = 250.00

[[record]]
compound = "*CC(*)(C)C(=O)Oc1cc(C)ccc1C (repeat unit)"
property_measured = "glass transition temperature"
reported_value = 111.00


(I) *c1ccc(Oc2ccc(C(=O)c3ccc(Oc4ccc(N5C(=O)c6ccc(Oc7cccc(Oc8ccc9c(c8)C(=O)N(*)C9=O)c7)cc6C5=O)cc4)cc3)cc2)cc1 (repeat unit)
(II) *c1ccc(Oc2ccc(S(=O)(=O)c3ccc(Oc4ccc(-c5nc(-c6ccc(-c7nc(*)c(-c8ccccc8)[nH]7)cc6)[nH]c5-c5ccccc5)cc4)cc3)cc2)cc1 (repeat unit)
Consider I and II . Which of these has its glass transition temperature at a higher number? Identify your pick by its label.
II

(a) *Oc1ccc(NC(=O)CCCCCCCC(=O)Nc2ccc(*)cc2)cc1 (repeat unit)
(b) *CCOCCOC(=O)CCCCCCCCCCCCCCCCC(=O)O* (repeat unit)
Please let me know which one, a or b , has a lower measured glass transition temperature value. // return label of chosen record
b

(A) *Oc1ccc(C(CC)c2ccc(OC(*)=O)cc2)cc1 (repeat unit)
(B) *Oc1ccc(-c2ccc(Oc3ccc(C(=O)c4cccc5cccc(C(=O)c6ccc(*)cc6)c45)cc3)cc2)cc1 (repeat unit)
(C) *CCC[Si](*)(C)O[Si](C)(C)CCCOc1ccc(-c2ccc(C#N)cc2)cc1 (repeat unit)
Arrange the 3 compounds from largest to smallest glass transition temperature. Dear reader, please state the labels in the requested order.
B, A, C
(B: 226.50 °C, A: 128.00 °C, C: -4.60 °C)

(I) *CCCCCCCCCCNC(=O)c1ccc(Cc2ccc(C(=O)N*)cc2)cc1 (repeat unit)
(II) *CC(*)C(=O)OCCC(F)(F)C(F)(F)C(F)(F)C(F)(F)C(F)(F)C(F)(F)F (repeat unit)
Among I and II , whose measured glass transition temperature is the smaller figure? The response must carry the label of the picked entry.
II
(II: -12.00 °C, I: 140.00 °C)
